Source of measurements: patent US11109593B2

# System: Scirpus juncoides
# assayRemarks: Test Example 2: herbicidal effect test by treatment during growing period in paddy rice cultivation (seven days after seeding)
# Assay type: in vivo
# conditionNotes: 120 g/10a active ingredient, assessed 14 days after treatment, dry weight vs untreated area
measuredAttribute: Herbicidal rate (%) Scirpus juncoides
Answer format: numeric, % implied, no suffix.

Task: Report Herbicidal rate (%) Scirpus juncoides for Cc1c(Cc2ccccc2N(S(=O)(=O)C(F)(F)F)S(=O)(=O)C(F)(F)F)c(=O)on1C(C)c1ccc(F)cc1F (stereo not drawn) please.
Result: 60

Task: Same question, Cc1c(Cc2ccccc2N(S(=O)(=O)C(F)(F)F)S(=O)(=O)C(F)(F)F)c(=O)on1C(c1ccccc1)C(C)C (stereo not drawn) this time
Result: 70

Task: Same question, Cc1c(Cc2ccccc2NS(=O)(=O)C(F)(F)F)c(=O)on1C(C)c1ccccc1 (stereo not drawn) this time
Result: 90

Task: Same question, "Cc1c(Cc2ccccc2N(C(=O)C2CC2)S(=O)(=O)C(F)(F)F)c(=O)on1C(C)(C)C" this time
Result: 90

Task: Same question, CCC(C)n1oc(=O)c(Cc2ccccc2N(S(=O)(=O)CC)S(=O)(=O)C(F)(F)F)c1C (stereo not drawn) this time
Result: 90

Task: Same question, "C=CCOC(=O)N(c1ccccc1Cc1c(C)n(CCSC)oc1=O)S(=O)(=O)C(F)(F)F" this time
Result: 90

Task: Same question, Cc1c(Cc2ccccc2NS(=O)(=O)C(F)(F)F)c(=O)on1C(C)c1ccccc1Cl (stereo not drawn) this time
Result: 80

Task: Same question, CCC(C)Cn1oc(=O)c(Cc2ccccc2N(C(=O)OCC(C)C)S(=O)(=O)C(F)(F)F)c1C (stereo not drawn) this time
Result: 90

Task: Same question, "Cc1c(Cc2ccccc2NS(=O)(=O)C(F)(F)F)c(=O)on1Cc1cccc(C(F)(F)F)c1" this time
Result: 70

Task: Same question, "COCCn1oc(=O)c(Cc2ccccc2N(S(=O)(=O)C(F)(F)F)S(=O)(=O)C(F)(F)F)c1C" this time
Result: 90

Task: Same question, CCC(C)CCn1oc(=O)c(Cc2ccccc2N(S(=O)(=O)C(F)(F)F)S(=O)(=O)C(F)(F)F)c1C (stereo not drawn) this time
Result: 60

Task: Same question, "Cc1c(Cc2ccccc2NS(=O)(=O)C(F)(F)F)c(=O)on1S(=O)(=O)C(C)C" this time
Result: 90

Task: Same question, CCCC(c1ccccc1)n1oc(=O)c(Cc2ccccc2N(S(=O)(=O)C(F)(F)F)S(=O)(=O)C(F)(F)F)c1C (stereo not drawn) this time
Result: 80

Task: Same question, Cc1c(Cc2ccccc2N(S(=O)(=O)C(F)(F)F)S(=O)(=O)C(F)(F)F)c(=O)on1C1CCc2ccccc21 (stereo not drawn) this time
Result: 70

Task: Same question, "Cc1c(Cc2ccccc2NS(=O)(=O)C(F)(F)F)c(=O)on1C(C)C" this time
Result: 90
